These data points were gathered from patent US20060257938A1.

# assay_overview: Probe fluorescence ratio response to arachidonic acid relative to ADIFAB2
# Format: binding
# assay_setup: arachidonic acid; response relative to ADIFAB2
# Description: In an alternate preferred embodiment, the protein is rI-FABP that has Ala substituted for Leu at position 72 (rI-FABP-L72A) with the resulting probe named ADIFAB2. […] ADIFAB2 also has an altered spectral response, making it especially useful for measurements of FFAu in blood samples (Apple et al, Clinical Proteomics, (2004) 1:41-44, U.S. patent application Ser. No. 10/670,958). […] The baseline value for this ratio, measured in the absence of analyte, is designated R0. […]

molecule | DR/DR AA
73V, 72A (protein, listed as Rattus norvegicus, PEPTIDE (1)...(131) wild-type rat intestinal fatty acid binding protein) AFDGTWKVDRNENYEKFMEKMGINVVKRKLGAHDNLKLTITQEGNKFTVKESSNFRNIDVVFELGVDFAYSAVDGTELTGTWTMEGNKLVGKFKRVDNGKELIAVREISGNELIQTYTYEGVEAKRIFKKE | 0.976
115H, 72A (protein, listed as Rattus norvegicus, PEPTIDE (1)...(131) wild-type rat intestinal fatty acid binding protein) AFDGTWKVDRNENYEKFMEKMGINVVKRKLGAHDNLKLTITQEGNKFTVKESSNFRNIDVVFELGVDFAYSAADGTELTGTWTMEGNKLVGKFKRVDNGKELIAVREISGNELIHTYTYEGVEAKRIFKKE | 0.891
117G, 72A (protein, listed as Rattus norvegicus, PEPTIDE (1)...(131) wild-type rat intestinal fatty acid binding protein) AFDGTWKVDRNENYEKFMEKMGINVVKRKLGAHDNLKLTITQEGNKFTVKESSNFRNIDVVFELGVDFAYSAADGTELTGTWTMEGNKLVGKFKRVDNGKELIAVREISGNELIQTGTYEGVEAKRIFKKE | 0.88
